experimental_system: Recombinant Tdp1 (Homo sapiens (Human), UniProt Q9NUW8)
Sequence (Q9NUW8 whole entry): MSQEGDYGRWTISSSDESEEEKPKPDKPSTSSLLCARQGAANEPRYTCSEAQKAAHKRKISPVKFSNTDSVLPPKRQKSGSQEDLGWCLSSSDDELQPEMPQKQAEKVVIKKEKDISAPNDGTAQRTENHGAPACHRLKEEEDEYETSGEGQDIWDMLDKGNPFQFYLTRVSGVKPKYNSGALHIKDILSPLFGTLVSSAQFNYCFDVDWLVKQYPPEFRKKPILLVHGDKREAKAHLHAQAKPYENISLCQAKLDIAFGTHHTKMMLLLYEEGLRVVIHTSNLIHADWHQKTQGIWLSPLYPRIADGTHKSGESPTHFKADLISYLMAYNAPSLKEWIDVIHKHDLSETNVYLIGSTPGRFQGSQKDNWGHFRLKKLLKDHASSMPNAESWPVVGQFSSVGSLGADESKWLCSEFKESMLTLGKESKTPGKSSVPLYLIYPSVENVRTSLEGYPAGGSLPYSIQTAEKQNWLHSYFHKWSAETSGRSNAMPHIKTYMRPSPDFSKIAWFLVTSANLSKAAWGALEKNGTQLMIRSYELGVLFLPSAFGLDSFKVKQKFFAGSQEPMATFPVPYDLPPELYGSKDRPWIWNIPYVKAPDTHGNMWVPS
experimental_details: Secondary radiolabel gel-based Tdp1 assay (N14Y substrate)
Assay type: biochemical
condition_info: 1 nM N14Y, 0.1 nM Tdp1; value printed with question mark; read-out: Activity (Gel)
pIC50: −log10 of the molar value.
recorded_metric: pIC50

Ask: Look up pIC50 for this compound: CN(C)[C@H]1C(O)=C(C(=O)NCN2CCCC2)C(=O)[C@]2(O)C(O)=C3C(=O)c4c(O)cccc4[C@](C)(O)[C@H]3C[C@H]12
Reply: > 7.00

====

experimental_system: Recombinant Tdp1 (Homo sapiens (Human))
experimental_details: AlphaScreen Tdp1 assay (qHTS, FITC/biotin phosphotyrosine DNA substrate)
Assay type: biochemical
condition_info: 1,536-well AlphaScreen qHTS; N/D = not detectable; read-out: Activity (qHTS) IC50
recorded_metric: IC50 (µM)
Give the value, in units of µM, as a plain number.

As a guide, the following entries are already answered.
CN(C)C1C(O)=C(C(N)=O)C(=O)[C@@]2(O)C(O)=C3C(=O)c4c(O)cccc4[C@](C)(O)C3C(O)C12 (stereo partly shown): 0.63
CN(C)[C@@H]1C(O)=C(C(N)=O)C(=O)[C@]2(O)C(O)=C3C(=O)c4c(O)cccc4[C@@](C)(O)[C@H]3[C@H](O)[C@@H]12: 1.59
CN(C)C1C(O)=C(C(N)=O)C(=O)[C@]2(O)C(O)=C3C(=O)c4c(O)cccc4[C@](C)(O)C3C(O)C12 (stereo partly shown): 3.16
CN(C)[C@@H]1C(O)=C(C(N)=O)C(=O)[C@@]2(O)C(O)=C3C(=O)c4c(O)cccc4[C@@](C)(O)[C@H]3[C@H](O)[C@@H]12: 0.5
CN(C)[C@H]1C(O)=C(C(N)=O)C(=O)[C@]2(O)C(O)=C3C(=O)c4c(O)cccc4[C@@](C)(O)[C@H]3C[C@@H]12: 14.1
CN(C)[C@H]1C(O)=C(C(=O)NCN2CCCC2)C(=O)[C@]2(O)C(O)=C3C(=O)c4c(O)cccc4[C@](C)(O)[C@H]3C[C@H]12: 0.2

Ask: Look up IC50 for this compound: CN(C)C1C(O)=C(C(N)=O)C(=O)[C@@]2(O)C(O)=C3C(=O)c4c(O)cccc4[C@@](C)(O)C3C[C@@H]12 (stereo partly shown)
Reply: 10

Ask: Look up IC50 for this compound: CN(C)[C@@H]1C(O)=C(C(=O)NCN2CCCC2)C(=O)[C@@]2(O)C(O)=C3C(=O)c4c(O)cccc4[C@@](C)(O)C3CC12 (stereo partly shown)
Reply: 0.71
